# subject_of_test: CDK1/Cyclin A (Homo sapiens, UniProt P06493)
# Sequence (P06493 whole entry): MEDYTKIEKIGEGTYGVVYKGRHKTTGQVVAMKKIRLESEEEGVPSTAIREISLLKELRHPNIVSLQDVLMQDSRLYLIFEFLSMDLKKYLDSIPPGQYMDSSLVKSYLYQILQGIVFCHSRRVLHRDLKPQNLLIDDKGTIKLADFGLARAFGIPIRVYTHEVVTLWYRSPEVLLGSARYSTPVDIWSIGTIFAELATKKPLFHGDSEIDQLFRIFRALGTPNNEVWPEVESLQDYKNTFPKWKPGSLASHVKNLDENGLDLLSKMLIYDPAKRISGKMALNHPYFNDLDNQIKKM
# Sequence (P20248 whole entry, further chain): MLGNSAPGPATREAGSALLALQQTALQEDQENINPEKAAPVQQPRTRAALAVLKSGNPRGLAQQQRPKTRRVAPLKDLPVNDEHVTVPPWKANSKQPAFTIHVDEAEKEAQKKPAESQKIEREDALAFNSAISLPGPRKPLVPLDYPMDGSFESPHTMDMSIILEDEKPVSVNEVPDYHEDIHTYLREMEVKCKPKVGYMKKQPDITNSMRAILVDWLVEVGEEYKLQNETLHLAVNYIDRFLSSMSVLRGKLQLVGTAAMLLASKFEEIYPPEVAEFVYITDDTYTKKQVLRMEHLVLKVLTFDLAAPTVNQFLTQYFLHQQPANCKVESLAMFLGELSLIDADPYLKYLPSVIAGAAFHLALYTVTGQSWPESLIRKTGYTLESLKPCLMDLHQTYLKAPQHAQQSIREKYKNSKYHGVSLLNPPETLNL
# assay_summary: Inhibition of CDK1/Cyclin-A2 (unknown origin) using histone-H1 as substrate after 90 mins by ADP-Glo assay
// classify: if (IC50 < 100 nM) Satisfied else Not satisfied

Consider the worked cases shown below.
compound	group_label
CCC1(C)C(C)=Nc2ccc(-c3nc(Nc4ccc(N5CCNCC5)cn4)ncc3F)cc21 (stereo not given)	Not satisfied
CCC1(C)C(C)=Nc2c(F)cc(-c3nc(Nc4ccc(C5CCNCC5)cn4)ncc3F)cc21 (stereo not given)	Not satisfied
CCC1(CC)C(C)=Nc2c(F)cc(-c3nc(Nc4ccc(N5CCN(C)CC5)cn4)ncc3F)cc21	Satisfied

// switching to the query compound
q: Does CCC1(C)C(C)=Nc2c(F)cc(-c3nc(Nc4ccc(C5CCN(C)CC5)cn4)ncc3F)cc21 (stereo not given) have IC50 strictly under 100 nM?
a: Not satisfied
